- TESTED TARGET: PAD4 (Homo sapiens, UniProt Q9UM07)
- Construct: made in house
- Sequence (Q9UM07 whole entry): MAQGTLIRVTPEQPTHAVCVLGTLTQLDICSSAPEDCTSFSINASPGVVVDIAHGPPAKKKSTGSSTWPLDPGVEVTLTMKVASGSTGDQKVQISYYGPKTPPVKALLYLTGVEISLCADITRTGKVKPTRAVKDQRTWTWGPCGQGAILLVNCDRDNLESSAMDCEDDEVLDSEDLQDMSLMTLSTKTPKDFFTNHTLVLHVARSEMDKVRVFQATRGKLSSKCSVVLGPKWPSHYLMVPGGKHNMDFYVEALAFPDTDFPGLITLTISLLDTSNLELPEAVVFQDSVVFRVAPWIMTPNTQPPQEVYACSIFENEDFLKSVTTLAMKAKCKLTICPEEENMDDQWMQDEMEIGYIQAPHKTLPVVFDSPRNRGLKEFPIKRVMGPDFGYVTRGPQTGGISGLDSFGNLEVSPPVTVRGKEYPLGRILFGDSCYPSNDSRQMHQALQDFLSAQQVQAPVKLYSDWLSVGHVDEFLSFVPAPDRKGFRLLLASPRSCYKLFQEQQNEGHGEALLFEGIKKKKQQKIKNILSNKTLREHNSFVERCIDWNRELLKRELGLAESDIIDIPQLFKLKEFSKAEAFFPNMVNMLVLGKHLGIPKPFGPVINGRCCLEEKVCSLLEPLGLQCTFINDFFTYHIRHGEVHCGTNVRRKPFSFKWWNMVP
- MEASUREMENT DESCRIPTION: Inactivation kinetics, PAD4
- Type: biochemical
- APPLIED CONDITIONS: kinact/KI relative to least inhibited isozyme (1.0)
Examples of molecules with documented Fold PAD4 Selectivity follow.
The reply should be a number in fold, with the unit left off.

MOLECULE	UNIT OF MEASUREMENT	TEST VALUE
COc1cccc2c1nc([C@H](CCCNC(=N)CF)NC(=O)c1cccc3c1C(=O)N(C)C3)n2C [8a′]	fold	1.1
CC(C)n1c([C@H](CCCNC(=N)CF)NC(=O)c2ccc(-c3ccccc3)cc2)nc2ccccc21 [Compound 5k]	fold	1.0
N=C(CF)NCCC[C@H](NC(=O)c1ccc(-c2ccccc2)cc1)c1nc2cc(F)c(F)cc2[nH]1 [Compound 5q]	fold	2.4

Read the next record carefully.
Requested field: Fold PAD4 Selectivity. Item: N=C(CCl)NCCC[C@H](NC(=O)c1ccc2ccccc2c1)c1nc2ccccc2[nH]1 [Compound 5d]
3.6
